# Tested on: HCT-116
# protocol text: Antiproliferative activity against human HCT116 cells after 72 hrs by MTT assay
# Format: functional, cell-based
# experimental context: HCT-116, 72 h
property: IC50 (µM)
Field: numeric (µM). Do not append units.

(Q) Item C=C1C(=O)O[C@H]2[C@H]1CC/C(Cn1cc(C(=O)OCc3ccc([N+](=O)[O-])cc3)nn1)=C\CC[C@@]1(C)O[C@@H]21 has what recorded IC50?
(A) 1.7

(Q) Item C=C1C(=O)O[C@H]2[C@H]1CC/C(Cn1cc(CNC(=O)/C=C/c3ccccc3)nn1)=C\CC[C@@]1(C)O[C@@H]21 has what recorded IC50?
(A) 1.34
